Data provenance: patent US9546158B2

TARGET SYSTEM: human PDE4B1 (Homo sapiens)
Construct: host or cells: Sf9 cells
Sequence (Q07343 whole entry): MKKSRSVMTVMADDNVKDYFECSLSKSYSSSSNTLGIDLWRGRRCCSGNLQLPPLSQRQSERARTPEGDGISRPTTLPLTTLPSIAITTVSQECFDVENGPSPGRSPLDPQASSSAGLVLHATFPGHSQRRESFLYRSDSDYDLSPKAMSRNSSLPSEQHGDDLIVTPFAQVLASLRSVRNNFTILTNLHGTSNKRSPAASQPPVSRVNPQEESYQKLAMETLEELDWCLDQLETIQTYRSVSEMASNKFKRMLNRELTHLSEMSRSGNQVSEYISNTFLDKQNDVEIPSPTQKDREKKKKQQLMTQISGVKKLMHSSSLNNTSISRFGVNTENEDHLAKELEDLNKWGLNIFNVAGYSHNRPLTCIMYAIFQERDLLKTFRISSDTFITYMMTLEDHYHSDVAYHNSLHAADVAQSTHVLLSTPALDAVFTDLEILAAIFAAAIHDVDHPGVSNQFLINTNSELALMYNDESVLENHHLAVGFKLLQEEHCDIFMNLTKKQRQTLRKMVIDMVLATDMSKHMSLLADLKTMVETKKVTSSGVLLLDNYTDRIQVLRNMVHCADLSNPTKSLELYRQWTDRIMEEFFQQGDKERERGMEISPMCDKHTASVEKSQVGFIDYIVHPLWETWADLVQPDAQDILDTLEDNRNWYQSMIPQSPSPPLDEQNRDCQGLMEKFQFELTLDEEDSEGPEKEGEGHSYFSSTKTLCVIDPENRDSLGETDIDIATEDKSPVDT
EXPERIMENT NOTES: cAMP HTRF assay to determine the activity of hPDE4B1
Type: biochemical
CONDITIONS USED: test substrate concentration of 1 μM, read-out: Inhibition of PDE4B, Inhibition in %
# inhibition at 1 µM values compiled below

COMPOUND	inhibition at 1 µM
O=C(NC1CC1)c1cc2c(cn1)c(C1CC1)nn2-c1ncc(-c2ccccc2F)cn1 [compound 36]	81%
CCN(CC)C(=O)c1cc2c(cn1)c(C1CC1)nn2-c1ncc(-c2ccccc2F)cn1 [compound 39]	67%
C[S+]([O-])c1nn(-c2ncc(-c3cc(C#N)ccc3F)cn2)c2cc(C(=O)N3CCOCC3)ccc12 (stereo not drawn) [Compound No. 25]	85%
NC(=O)c1nn(-c2ncc(-c3ccccc3F)cn2)c2cc(C(=O)N3CCOCC3)ccc12 [Compound No. 3]	83%
O=C(c1cc2c(cn1)c(C1CC1)nn2-c1ncc(-c2ccccc2F)cn1)N1CCCC1 [compound 38]	85%
O=C(c1ccc2c(C3CC3)nn(-c3ncc(-c4ccccc4F)cn3)c2c1)N1CCOCC1 [Compound No. 4]	106%
Cc1nn(-c2ncc(-c3ccccc3F)cn2)c2cc(C(=O)N3CCOCC3)ccc12 [Compound No. 1]	99%
O=C(NCC1(O)CCC1)c1cc2c(cn1)c(C1CC1)nn2-c1ncc(-c2ccccc2F)cn1 [compound 46]	31%
O=C(c1ccc2c(C(F)(F)F)nn(-c3ncc(-c4ccccc4F)cn3)c2c1)N1CCOCC1 [Compound No. 2]	102%
CC(O)c1nn(-c2ncc(-c3ccccc3F)cn2)c2cc(C(=O)N3CCOCC3)ccc12 (stereo not drawn) [Compound No. 20]	102%
CN(CCO)C(=O)c1cc2c(cn1)c(C1CC1)nn2-c1ncc(-c2ccccc2F)cn1 [compound 40]	40%
COc1ccc(F)c(-c2cnc(-n3nc([S+](C)[O-])c4ccc(C(=O)N5CCOCC5)cc43)nc2)c1 (stereo not drawn) [Compound No. 24]	100%
O=C(c1ccc2c(C3CC3)nn(-c3ncc(-c4ccccc4)cn3)c2c1)N1CCOCC1 [Compound No. 14]	92%
C[S+]([O-])c1nn(-c2ncc(-c3ccccc3F)cn2)c2cc(C(=O)N3CCOCC3)ccc12 (stereo not drawn) [Compound No. 6]	97%
C[S+]([O-])c1nn(-c2ncc(-c3ccccc3)cn2)c2cc(C(=O)N3CCNCC3)ccc12 (stereo not drawn) [Compound No. 9]	46%

====

# inhibition at 1 µM values compiled below
TARGET SYSTEM: human PDE4B1 (Homo sapiens)
Construct: host or cells: Sf9 cells
EXPERIMENT NOTES: cAMP HTRF assay to determine the activity of hPDE4B1
Type: biochemical
CONDITIONS USED: test substrate concentration of 1 μM, read-out: Inhibition of PDE4B, Inhibition in %

MOLECULE	VALUE UNIT	inhibition at 1 µM
CC1COCC(C)N1C(=O)c1cc2c(cn1)c(C1CC1)nn2-c1ncc(-c2ccccc2F)cn1 (stereo not shown) [compound 49]	%	54
COc1ccc(F)c(-c2cnc(-n3nc(C(C)O)c4ccc(C(=O)N5CCOCC5)cc43)nc2)c1 (stereo not shown) [Compound No. 21]	%	112
CC(O)c1nn(-c2ncc(-c3cc(C#N)ccc3F)cn2)c2cc(C(=O)N3CCOCC3)ccc12 (stereo not shown) [Compound No. 22]	%	112
C[S+]([O-])c1nn(-c2ncc(-c3ccccc3F)cn2)c2cc(C(=O)N3CC[C@@H](N)C3)ccc12 (stereo partly shown) [Compound No. 13]	%	108
CS(=O)(=O)c1nn(-c2ncc(-c3ccccc3F)cn2)c2cc(C(=O)N3CCOCC3)ccc12 [Compound No. 5]	%	96
O=C1CN(C(=O)c2ccc3c(C4CC4)nn(-c4ncc(-c5ccccc5F)cn4)c3c2)CCN1 [Compound No. 16]	%	99
CC(O)c1nn(-c2ncc(-c3ccccc3)cn2)c2cc(C(=O)N3CCOCC3)ccc12 (stereo not shown) [Compound No. 19]	%	112
